Tested System: δ opioid receptors (Mus musculus, UniProt P32300)
Construct: Bioassays Using Isolated Organ Preparations; from tissue; host or cells: isolated mouse vas deferens
Sequence (P32300 whole entry): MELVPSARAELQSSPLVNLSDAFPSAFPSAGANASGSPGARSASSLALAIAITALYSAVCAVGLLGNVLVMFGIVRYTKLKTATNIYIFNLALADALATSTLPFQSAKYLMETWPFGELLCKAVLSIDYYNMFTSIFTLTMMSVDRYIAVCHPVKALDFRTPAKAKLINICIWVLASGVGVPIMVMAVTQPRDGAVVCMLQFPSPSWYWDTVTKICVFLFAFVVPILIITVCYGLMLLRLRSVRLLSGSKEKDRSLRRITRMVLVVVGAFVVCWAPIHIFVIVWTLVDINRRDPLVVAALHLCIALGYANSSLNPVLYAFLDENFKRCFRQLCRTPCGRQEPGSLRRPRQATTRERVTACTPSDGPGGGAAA
Protocol Details: MVD assay: inhibition of electrically evoked contractions of the mouse vas deferens (δ antagonist Ke)
Format: cell-based
Experimental Context: δ agonist DPDPE, means of 3-8 determinations ± SEM
Positions of bridges follow the written chain, without caps; N, C: chain ends. Non-standard residues stand in square brackets, D forms with d. Residues, ends and D or L forms follow the SMILES beside them. 2Nal = N[C@@H](Cc1ccc2ccccc2c1)C(=O)O; dOrn = NCCC[C@@H](N)C(=O)O; NMeAib = CNC(C)(C)C(=O)O
// reported Ke in the MVD assay, antagonist potency against DPDPE for each item listed
Give the figure by itself; no unit, no explanation.

# annotated cases, reported Ke in the MVD assay, antagonist potency against DPDPE shown
CN1C(=O)[C@H]2CCCN2C(=O)[C@H](Cc2ccc3ccccc3c2)NC(=O)[C@H](NC(=O)[C@@H](N)Cc2ccc(O)cc2)CCCNC(=O)C1(C)C [Example 7, H-Tyr-c[-D-Orn-2-Nal-D-Pro-MeAib-]] (H-Y[dOrn][2Nal][dP][NMeAib]; lactam 2-C) ... 370
CC[C@@H](C)[C@H]1NC(=O)[C@H]2CCCN2C(=O)[C@H](Cc2ccc3ccccc3c2)NC(=O)[C@H](NC(=O)[C@@H](N)Cc2ccc(O)cc2)CCCNC1=O [Example 9, H-Tyr-c[-D-Orn-2-Nal-D-Pro-D-Ile-]] (HELM PEPTIDE1{Y.[O=C([C@@H](CCCN[*:3])N[*:1])[*:2]].[O=C([C@H](Cc1ccc2ccccc2c1)N[*:1])[*:2]].[dP].[dI]}$PEPTIDE1,PEPTIDE1,2:R3-5:R2$$$V2.0) ... 4.88

Could you now consider this next compound?
In: Provide value of Ke in the MVD assay, antagonist potency against DPDPE for this record tested with δ opioid receptors (Mus musculus, UniProt P32300): CN1CC(=O)NCCC[C@@H](NC(=O)[C@@H](N)Cc2ccc(O)cc2)C(=O)N[C@@H](Cc2ccc3ccccc3c2)C(=O)N2CCC[C@@H]2C1=O [Example 2, H-Tyr-c[-D-Orn-2-Nal-D-Pro-Sar-]] (HELM PEPTIDE1{Y.[O=C([C@@H](CCCN[*:3])N[*:1])[*:2]].[O=C([C@H](Cc1ccc2ccccc2c1)N[*:1])[*:2]].[dP].[Sar]}$PEPTIDE1,PEPTIDE1,2:R3-5:R2$$$V2.0)
Out: 11.2
